# Test system: Escherichia coli TOP10
# Test name: shrunken log2 fold change of peptide-encoding DNA abundance (4.5 h post-induction vs induction); higher = less antimicrobial activity (less host growth inhibition)
# Condition notes: time post-induction: 4.5 h; library: site-saturation at positions 5, 18, 19, 20
Result type: shrunken log2 fold change
One number for each entry.

Completed entries (count: 3):
Item sequence | Result type | Readout value
RRIRERPPRLPRPRPRPDCWPRP | shrunken log2 fold change | -0.0875
RRIRRRPPRLPRPRPRPEFKPRP | shrunken log2 fold change | 0.0599
RRIRARPPRLPRPRPRPYFIPRP | shrunken log2 fold change | -0.73

Provide each entry's shrunken log2 fold change from the list below.
1. RRIRYRPPRLPRPRPRPANTPRP
2. RRIRMRPPRLPRPRPRPSRAPRP
3. RRIRQRPPRLPRPRPRPFWSPRP

Result:
1: -0.589; 2: 1.18; 3: -0.00402

---

Give measured shrunken log2 fold change for each item. Keep answers brief.
# Tested on: Escherichia coli TOP10
# Test name: shrunken log2 fold change of peptide-encoding DNA abundance (4.5 h post-induction vs induction); higher = less antimicrobial activity (less host growth inhibition)
# Condition notes: time post-induction: 4.5 h; library: site-saturation at positions 5, 18, 19, 20
Numbers only.

Item sequence | Target of assay | Result type | Readout value
RRIRCRPPRLPRPRPRPFKWPRP | Escherichia coli TOP10 | shrunken log2 fold change | -0.115

Provide each entry's shrunken log2 fold change from the list below.
1. RRIRYRPPRLPRPRPRPCVAPRP
2. RRIRRRPPRLPRPRPRPMQGPRP

Result:
1: -0.11; 2: 0.031

---

# System: Escherichia coli TOP10
# Test name: shrunken log2 fold change of peptide-encoding DNA abundance (4.5 h post-induction vs induction); higher = less antimicrobial activity (less host growth inhibition)
# Condition notes: time post-induction: 4.5 h; library: site-saturation at positions 5, 18, 19, 20
Result type: shrunken log2 fold change
Numbers only.

Completed entries (count: 5):
Item sequence | Result type | Readout value
RRIRMRPPRLPRPRPRPWDFPRP | shrunken log2 fold change | 0.121
RRIRFRPPRLPRPRPRPPTNPRP | shrunken log2 fold change | 0.236
RRIRFRPPRLPRPRPRPNRKPRP | shrunken log2 fold change | -0.173
RRIRARPPRLPRPRPRPFDTPRP | shrunken log2 fold change | -0.333
RRIRRRPPRLPRPRPRPKEDPRP | shrunken log2 fold change | 0.196

Provide each entry's shrunken log2 fold change from the list below.
1. RRIRHRPPRLPRPRPRPAMLPRP
2. RRIRWRPPRLPRPRPRPMAMPRP
3. RRIRTRPPRLPRPRPRPHMIPRP

Result:
[-0.168, 0.00646, -0.138]

Provide each entry's shrunken log2 fold change from the list below.
1. RRIRKRPPRLPRPRPRPGCRPRP
2. RRIRKRPPRLPRPRPRPQFAPRP
3. RRIRERPPRLPRPRPRPCHKPRP

Result:
1. 0.654
2. -0.0223
3. -0.154

Provide each entry's shrunken log2 fold change from the list below.
1. RRIRGRPPRLPRPRPRPCTFPRP
2. RRIRGRPPRLPRPRPRPYKKPRP
3. RRIRHRPPRLPRPRPRPMFPPRP
4. RRIRGRPPRLPRPRPRPRWFPRP
5. RRIRARPPRLPRPRPRPFHLPRP
6. RRIRTRPPRLPRPRPRPCLWPRP

Result:
1. 0.0341
2. -0.186
3. -0.281
4. 0.355
5. -0.36
6. -0.0838

---

# System: Escherichia coli TOP10
# Test name: shrunken log2 fold change of peptide-encoding DNA abundance (4.5 h post-induction vs induction); higher = less antimicrobial activity (less host growth inhibition)
# Condition notes: time post-induction: 4.5 h; library: site-saturation at positions 5, 18, 19, 20
Result type: shrunken log2 fold change

Completed entries (count: 3):
Item sequence | Target of assay | shrunken log2 fold change
RRIRMRPPRLPRPRPRPAHHPRP | Escherichia coli TOP10 | 0.0701
RRIRVRPPRLPRPRPRPAGYPRP | Escherichia coli TOP10 | -0.0144
RRIRHRPPRLPRPRPRPAGNPRP | Escherichia coli TOP10 | 0.023

Provide each entry's shrunken log2 fold change from the list below.
1. RRIRGRPPRLPRPRPRPALAPRP
2. RRIRRRPPRLPRPRPRPDIPPRP
3. RRIRMRPPRLPRPRPRPVNEPRP

Result:
1: 1.17; 2: -0.22; 3: 0.0186

---

# Test system: Escherichia coli TOP10
# Test name: shrunken log2 fold change of peptide-encoding DNA abundance (4.5 h post-induction vs induction); higher = less antimicrobial activity (less host growth inhibition)
# Condition notes: time post-induction: 4.5 h; library: site-saturation at positions 5, 18, 19, 20
Rule: t for shrunken log2 fold change not less than 0.03, f for anything less.

These recorded examples may help you get a feel for the data.
Item sequence | Discrete label
RRIRTRPPRLPRPRPRPTCRPRP | f
RRIRQRPPRLPRPRPRPVVCPRP | t
RRIRVRPPRLPRPRPRPCSHPRP | f
RRIRIRPPRLPRPRPRPGEQPRP | f
RRIRCRPPRLPRPRPRPVDSPRP | t

Request: Determine whether this sequence has shrunken log2 fold change no lower than 0.03: `RRIRRRPPRLPRPRPRPQLCPRP`
Result: t

---

# Tested on: Escherichia coli TOP10
# Test name: shrunken log2 fold change of peptide-encoding DNA abundance (4.5 h post-induction vs induction); higher = less antimicrobial activity (less host growth inhibition)
# Condition notes: time post-induction: 4.5 h; library: site-saturation at positions 5, 18, 19, 20
Rule: 1 (yes) for shrunken log2 fold change not less than 0.1, 0 (no) for anything less.

These recorded examples may help you get a feel for the data.
Item sequence | Target of assay | Discrete label
RRIRKRPPRLPRPRPRPDGTPRP | Escherichia coli TOP10 | 1 (yes)
RRIRGRPPRLPRPRPRPGFVPRP | Escherichia coli TOP10 | 1 (yes)
RRIRLRPPRLPRPRPRPVPPPRP | Escherichia coli TOP10 | 1 (yes)
RRIRSRPPRLPRPRPRPEQFPRP | Escherichia coli TOP10 | 0 (no)
RRIRHRPPRLPRPRPRPPTYPRP | Escherichia coli TOP10 | 0 (no)
RRIRWRPPRLPRPRPRPGIPPRP | Escherichia coli TOP10 | 1 (yes)

Request: Determine whether this sequence has shrunken log2 fold change no lower than 0.1: `RRIRPRPPRLPRPRPRPQFWPRP`
Result: 1 (yes)

Request: Determine whether this sequence has shrunken log2 fold change no lower than 0.1: `RRIRMRPPRLPRPRPRPKWPPRP`
Result: 1 (yes)

Request: Determine whether this sequence has shrunken log2 fold change no lower than 0.1: `RRIRWRPPRLPRPRPRPGAWPRP`
Result: 1 (yes)

Request: Determine whether this sequence has shrunken log2 fold change no lower than 0.1: `RRIRCRPPRLPRPRPRPSLAPRP`
Result: 1 (yes)

Request: Determine whether this sequence has shrunken log2 fold change no lower than 0.1: `RRIRARPPRLPRPRPRPPQAPRP`
Result: 1 (yes)

Request: Determine whether this sequence has shrunken log2 fold change no lower than 0.1: `RRIRGRPPRLPRPRPRPYDAPRP`
Result: 0 (no)

Request: Determine whether this sequence has shrunken log2 fold change no lower than 0.1: `RRIRIRPPRLPRPRPRPGSRPRP`
Result: 0 (no)

Request: Determine whether this sequence has shrunken log2 fold change no lower than 0.1: `RRIRMRPPRLPRPRPRPFYSPRP`
Result: 0 (no)

---

# System: Escherichia coli TOP10
# Test name: shrunken log2 fold change of peptide-encoding DNA abundance (4.5 h post-induction vs induction); higher = less antimicrobial activity (less host growth inhibition)
# Condition notes: time post-induction: 4.5 h; library: site-saturation at positions 5, 18, 19, 20
Rule: 1 (yes) for shrunken log2 fold change not less than -0.1, 0 (no) for anything less.

Item sequence | Discrete label
RRIRWRPPRLPRPRPRPVLEPRP | 1 (yes)

Request: Determine whether this sequence has shrunken log2 fold change no lower than -0.1: `RRIRSRPPRLPRPRPRPGPMPRP`
Result: 1 (yes)

Request: Determine whether this sequence has shrunken log2 fold change no lower than -0.1: `RRIRNRPPRLPRPRPRPQHAPRP`
Result: 1 (yes)

Request: Determine whether this sequence has shrunken log2 fold change no lower than -0.1: `RRIRGRPPRLPRPRPRPAFRPRP`
Result: 1 (yes)

Request: Determine whether this sequence has shrunken log2 fold change no lower than -0.1: `RRIRPRPPRLPRPRPRPFDWPRP`
Result: 1 (yes)

Request: Determine whether this sequence has shrunken log2 fold change no lower than -0.1: `RRIRERPPRLPRPRPRPLGMPRP`
Result: 0 (no)

---

# System: Escherichia coli TOP10;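 further: peptides expressed intracellularly from a pBAD plasmid library in pooled LB shake-flask culture, induced with 0.3% L-arabinose, DNA abundance read by NGS, three biological replicates, DESeq2 with apeglm shrinkage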
# Test name: shrunken log2 fold change of peptide-encoding DNA abundance (4.5 h post-induction vs induction); higher = less antimicrobial activity (less host growth inhibition)
# Condition notes: time post-induction: 4.5 h; library: site-saturation at positions 5, 18, 19, 20
Rule: Yes for shrunken log2 fold change not less than -0.3, No for anything less.

Request: Determine whether this sequence has shrunken log2 fold change no lower than -0.3: `RRIRWRPPRLPRPRPRPLKPPRP`
Result: Yes
